# protocol: chemical genetic growth profiling, strain panel (AID 1159580);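 also: tested at 20 µM; growth read once vehicle control cultures reached saturation at 30 °C; 1 = growth at the plate median or of vehicle wells; lower values mean less growth of the strain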
# condition details: S. cerevisiae deletion strains, growth OD, locus YMR223W, strain ubp8, active compounds read low
The campaign covered roughly 5,500 compounds. About 2,000 (36%) were called active. Roughly 18% stayed inconclusive and do not appear here. The list shows a part of the results.
observation type: normalized growth
Respond numerically, and do not add a unit to the figure.

CN1C(C(=O)Nc2ccccn2)=C(O)c2ccccc2S1(=O)=O : 0.97
Oc1ccc2c(c1)OCC1c3cc4c(cc3OC21)OCO4 (stereo unspecified) : 0.983
CCC(C)c1cnc(CC(C)C)c(=O)n1O (stereo unspecified) : 1.01
COc1ccc2c(c1OC)C(=O)OC2[C@H]1c2c(cc3c(c2OC)OCO3)CCN1C (stereo partly specified) : 1.01
COC(=O)C(O)c1ccccc1 (stereo unspecified) : 0.975
CC(C)NC[C@H](O)COc1cccc2ccccc12 : 1.06
Oc1ccc(Cl)cc1Cc1cc(Cl)ccc1O : 0.066
CC(C)NNC(=O)c1ccncc1 : 1.02
Oc1ccc(Cl)cc1 : 1
CC(=O)OCC(OC(C)=O)C(OC(C)=O)C(OC(C)=O)C(OC(C)=O)C(COC(C)=O)OC(C)=O (stereo unspecified) : 0.993

Summary for this compound, O=S1OCC2C(CO1)C1(Cl)C(Cl)=C(Cl)C2(Cl)C1(Cl)Cl (stereo unspecified) : normalized growth is 0.955

Summary for this compound, "COc1ccc2c(c1)O[C@H]1c3ccc(OC)cc3OC[C@@H]21" : normalized growth is 0.92

Summary for this compound, "Cc1cc(NC(=O)C2=C(O)c3ccccc3S(=O)(=O)N2C)no1" : normalized growth is 0.944

Summary for this compound, CCCC(=O)O[C@]1(C(=O)CO)CCC2[C@@H]3CCC4=CC(=O)CC[C@]4(C)C3[C@@H](O)C[C@@]21C (stereo partly specified) : normalized growth is 0.951

Summary for this compound, C#CCCCCCCCCCCCC(=O)CC(O)COC(C)=O (stereo unspecified) : normalized growth is 0.841

Summary for this compound, C=C1C(C)C2C(Cc3ccccc3)NC(=O)C23OC(=O)/C=C/C(O)CCCC(C)C/C=C/C3C1O (stereo unspecified) : normalized growth is 1
